Biological target: rat brain nicotinic receptor (α7 NAChR) (Rattus norvegicus (Rat), UniProt Q05941)
Sequence (Q05941 23-502 limits assumed): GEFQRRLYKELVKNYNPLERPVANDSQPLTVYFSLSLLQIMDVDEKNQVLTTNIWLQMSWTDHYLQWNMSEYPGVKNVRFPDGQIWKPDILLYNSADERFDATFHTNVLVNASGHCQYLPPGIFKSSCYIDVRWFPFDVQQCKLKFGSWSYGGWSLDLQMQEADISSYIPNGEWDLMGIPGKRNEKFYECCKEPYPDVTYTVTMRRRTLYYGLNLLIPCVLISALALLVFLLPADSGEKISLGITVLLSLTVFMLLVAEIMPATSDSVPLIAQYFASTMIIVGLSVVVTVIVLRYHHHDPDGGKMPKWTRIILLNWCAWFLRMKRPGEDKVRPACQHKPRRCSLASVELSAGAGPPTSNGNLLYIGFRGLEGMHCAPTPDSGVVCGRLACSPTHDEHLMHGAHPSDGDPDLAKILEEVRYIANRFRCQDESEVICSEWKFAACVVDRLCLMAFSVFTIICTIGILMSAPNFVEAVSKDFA
Format: binding
pKi: −log10 of the molar value.
Rule: pKi under 7 gives no (0), otherwise yes (1).

| smiles.repr | answer.label |
| --- | --- |
| Cc1cc(C)c2c(C(=O)OCC34CCN(CC3)CC4)c[nH]c2c1 | no (0) |
| O=C(OCC12CCN(CC1)CC2)c1c[nH]c2cccc(F)c12 | yes (1) |
| COc1c(C)ccc2[nH]cc(C(=O)OCC34CCN(CC3)CC4)c12 | yes (1) |
| O=C(OCC12CCN(CC1)CC2)c1c[nH]c2cc(F)ccc12 | no (0) |
| COc1cc(C#N)cc2[nH]cc(C(=O)OCC34CCN(CC3)CC4)c12 | no (0) |

----------
Biological target: CYP2C19 (Homo sapiens (Human))
Sequence (P33261 whole entry): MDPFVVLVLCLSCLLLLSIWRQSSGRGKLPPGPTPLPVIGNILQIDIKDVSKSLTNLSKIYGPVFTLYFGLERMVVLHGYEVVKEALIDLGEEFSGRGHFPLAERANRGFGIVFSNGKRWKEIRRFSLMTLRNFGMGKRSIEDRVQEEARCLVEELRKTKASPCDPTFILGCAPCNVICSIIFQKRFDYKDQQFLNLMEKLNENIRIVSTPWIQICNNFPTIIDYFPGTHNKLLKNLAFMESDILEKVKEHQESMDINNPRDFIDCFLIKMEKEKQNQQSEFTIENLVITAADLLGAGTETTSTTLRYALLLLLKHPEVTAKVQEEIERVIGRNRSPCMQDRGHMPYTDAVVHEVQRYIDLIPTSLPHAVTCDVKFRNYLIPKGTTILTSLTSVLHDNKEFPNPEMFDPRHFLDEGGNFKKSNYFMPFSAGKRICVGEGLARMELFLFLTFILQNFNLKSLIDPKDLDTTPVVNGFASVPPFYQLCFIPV
Conditions: microsomes
pIC50: −log10 of the molar value.
Quick reference for pIC50 among some compounds

| compound | pIC50 |
| --- | --- |
| O=C(OCC12CCN(CC1)CC2)c1c[nH]c2cccc(F)c12 | < 5.00 |
| O=C(OCC12CCN(CC1)CC2)c1c[nH]c2ccc(Cl)cc12 [Compound 2] | < 5.00 |
| O=C(OCC12CCN(CC1)CC2)c1c[nH]c2c(Cl)cccc12 | < 5.00 |
| O=C(OCC12CCN(CC1)CC2)c1c[nH]c2cc(Cl)ccc12 | < 5.00 |
| O=C(OCC12CCN(CC1)CC2)c1c[nH]c2cccc(Cl)c12 | < 5.00 |
| O=C(OCC12CCN(CC1)CC2)c1c[nH]c2cccc(Br)c12 | < 5.00 |
| O=C(OCC12CCN(CC1)CC2)c1c[nH]c2ccc(Cl)cc12 [Compound 27] | < 5.00 |
| Cc1cccc2c(C(=O)OCC34CCN(CC3)CC4)c[nH]c12 | < 5.00 |
| O=C(OCC12CCN(CC1)CC2)c1c[nH]c2cc(Br)ccc12 | < 5.00 |
| Cc1cccc2[nH]cc(C(=O)OCC34CCN(CC3)CC4)c12 | < 5.00 |
| O=C(OCC12CCN(CC1)CC2)c1c[nH]c2ccc(Br)cc12 | < 5.00 |

----------
Assay: Metabolic stability assay in rat liver microsomes (RLM)
Type: in vitro ADME
Conditions: Protocol No. 2; rat liver microsomes, 1 μM
Some compounds, each annotated with its measured RLM.

| smiles.repr | RLM |
| --- | --- |
| COc1cc(F)c2c(C(=O)OCC34CCN(CC3)CC4)c[nH]c2c1.Cl | 47.7 mL/min/kg |
| Cl.O=C(OCC12CCN(CC1)CC2)c1c[nH]c2cc(OC(F)F)ccc12 | 25.92 mL/min/kg |
| COc1cc2[nH]cc(C(=O)OCC34CCN(CC3)CC4)c2cc1F.Cl | 85.5 mL/min/kg |
| Cl.O=C(OCC12CCN(CC1)CC2)c1c[nH]c2cc3c(cc12)OCCO3 | 55.98 mL/min/kg |
| Cl.O=C(OCC12CCN(CC1)CC2)c1c[nH]c2cc(OC(F)(F)F)ccc12 | 25.92 mL/min/kg |

----------
Assay: Metabolic stability assay in rat liver microsomes (RLM)
Type: in vitro ADME
Conditions: rat, microsomes, 1 μM, pH 7.4
RLM of 80 mL/min/kg or higher: Criterion met. Under 80 mL/min/kg: Criterion not met.

| compound | answer.label |
| --- | --- |
| O=C(OCC12CCN(CC1)CC2)c1c[nH]c2cc(Br)ccc12 | Criterion not met |
| COc1ccc2[nH]cc(C(=O)OCC34CCN(CC3)CC4)c2c1C | Criterion met |
| O=C(OCC12CCN(CC1)CC2)c1c[nH]c2ccc(Cl)cc12 [Compound 27] | Criterion met |
| O=C(OCC12CCN(CC1)CC2)c1c[nH]c2cccc(F)c12 | Criterion met |
| COc1ccc2c(C(=O)OCC34CCN(CC3)CC4)c[nH]c2c1 [Compound 10] | Criterion not met |
| O=C(OCC12CCN(CC1)CC2)c1c[nH]c2ccc(Cl)cc12 [Compound 2] | Criterion met |
| COc1ccc2[nH]cc(C(=O)OCC34CCN(CC3)CC4)c2c1 | Criterion not met |
| O=C(OCC12CCN(CC1)CC2)c1c[nH]c2ccc(O)cc12 | Criterion not met |
| Cc1ccc2[nH]cc(C(=O)OCC34CCN(CC3)CC4)c2c1 | Criterion met |
| COc1ccc2c(C(=O)OCC34CCN(CC3)CC4)c[nH]c2c1 [Compound 17] | Criterion not met |
| COc1cccc2c(C(=O)OCC34CCN(CC3)CC4)c[nH]c12 | Criterion met |
| COc1cccc2[nH]cc(C(=O)OCC34CCN(CC3)CC4)c12 | Criterion not met |
| O=C(OCC12CCN(CC1)CC2)c1c[nH]c2cc(Cl)ccc12 | Criterion not met |
| O=C(OCC12CCN(CC1)CC2)c1c[nH]c2ccccc12 | Criterion met |
| Cc1cccc2c(C(=O)OCC34CCN(CC3)CC4)c[nH]c12 | Criterion met |
| N#Cc1ccc2c(C(=O)OCC34CCN(CC3)CC4)c[nH]c2c1 | Criterion not met |
| O=C(OCC12CCN(CC1)CC2)c1c[nH]c2c(Cl)cccc12 | Criterion met |
| O=C(OCC12CCN(CC1)CC2)c1c[nH]c2cc(F)ccc12 | Criterion met |

----------
half-life at 1 μM values, listed per item
Assay: Human plasma stability
Assay type: in vitro ADME
Details: pH 7.4; Protocol No. 1; human plasma, 1 μM, 37° C.; read-out: T1/2
measured.property: half-life at 1 μM (min)

| smiles.repr | bound.type | measured.number |
| --- | --- | --- |
| COc1cc2[nH]cc(C(=O)OCC34CCN(CC3)CC4)c2cc1F.Cl | > | 120 |
| COc1cc(F)c2c(C(=O)OCC34CCN(CC3)CC4)c[nH]c2c1.Cl | = | 17.6 |
| Cl.O=C(OCC12CCN(CC1)CC2)c1c[nH]c2cc3c(cc12)OCCO3 | = | 34.7 |

----------
Assay: Human plasma stability
Format: in vitro ADME
Settings: human, plasma, pH 7.4
Label T when half-life at 1 μM is at or above 40 min; otherwise label F.

| smiles.repr | answer.label |
| --- | --- |
| COc1cccc2[nH]cc(C(=O)OCC34CCN(CC3)CC4)c12 | F |
| O=C(OCC12CCN(CC1)CC2)c1c[nH]c2cc(Cl)ccc12 | T |
| Cc1ccc2[nH]cc(C(=O)OCC34CCN(CC3)CC4)c2c1 | T |
| O=C(OCC12CCN(CC1)CC2)c1c[nH]c2ccccc12 | F |
| O=C(OCC12CCN(CC1)CC2)c1c[nH]c2cc(Br)ccc12 | T |
| COc1ccc2[nH]cc(C(=O)OCC34CCN(CC3)CC4)c2c1 | F |
| O=C(OCC12CCN(CC1)CC2)c1c[nH]c2cccc(Br)c12 | T |
| COc1ccc2[nH]cc(C(=O)OCC34CCN(CC3)CC4)c2c1C | T |
| O=C(OCC12CCN(CC1)CC2)c1c[nH]c2ccc(Br)cc12 | T |
| N#Cc1ccc2c(C(=O)OCC34CCN(CC3)CC4)c[nH]c2c1 | T |
| O=C(OCC12CCN(CC1)CC2)c1c[nH]c2cccc(F)c12 | F |
| O=C(OCC12CCN(CC1)CC2)c1c[nH]c2ccc(F)cc12 | T |
| O=C(OCC12CCN(CC1)CC2)c1c[nH]c2cc(O)ccc12 | T |
| O=C(OCC12CCN(CC1)CC2)c1c[nH]c2cccc(Cl)c12 | T |
| COc1ccc2c(C(=O)OCC34CCN(CC3)CC4)c[nH]c2c1 | T |
| Cc1cccc2[nH]cc(C(=O)OCC34CCN(CC3)CC4)c12 | T |

----------
Molecular target: CYP2D6 (Homo sapiens (Human), UniProt P10635)
Sequence (P10635 whole entry): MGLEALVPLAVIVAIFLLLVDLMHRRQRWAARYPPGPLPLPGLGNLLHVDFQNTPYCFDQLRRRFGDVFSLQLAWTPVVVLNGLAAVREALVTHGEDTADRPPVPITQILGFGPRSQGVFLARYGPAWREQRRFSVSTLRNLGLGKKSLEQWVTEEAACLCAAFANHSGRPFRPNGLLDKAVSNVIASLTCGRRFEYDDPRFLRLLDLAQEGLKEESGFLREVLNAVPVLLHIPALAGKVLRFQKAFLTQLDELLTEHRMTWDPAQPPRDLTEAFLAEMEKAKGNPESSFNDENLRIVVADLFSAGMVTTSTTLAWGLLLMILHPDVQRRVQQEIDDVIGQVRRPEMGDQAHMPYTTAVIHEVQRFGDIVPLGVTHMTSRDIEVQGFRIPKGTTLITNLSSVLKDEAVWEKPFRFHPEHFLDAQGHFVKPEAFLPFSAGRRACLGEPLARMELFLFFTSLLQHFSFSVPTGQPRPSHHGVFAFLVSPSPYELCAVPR
Test: Cytochrome P450 inhibition in human liver microsomes, CYP2D6
Settings: read-out: 2D6 IC50, Protocol 1
pIC50: −log10 of the molar value.

| compound | pIC50 |
| --- | --- |
| Cc1ccc2c(C(=O)OCC34CCN(CC3)CC4)c[nH]c2c1.Cl [Compound 45, hydrochloride] | < 5.00 |
| Cl.O=C(OCC12CCN(CC1)CC2)c1c[nH]c2cc(O)c(F)cc12 [Compound 59, hydrochloride] | < 5.00 |
| Cc1cc2c(C(=O)OCC34CCN(CC3)CC4)c[nH]c2cc1O [Compound 55] | < 5.00 |
| COc1cc(Br)c2c(C(=O)OCC34CCN(CC3)CC4)c[nH]c2c1 [Compound 48] | < 5.00 |
| COc1cc2c(C(=O)OCC34CCN(CC3)CC4)c[nH]c2cc1F [Compound 57] | < 5.00 |
| Cl.O=C(OCC12CCN(CC1)CC2)c1c[nH]c2cc(F)c(F)cc12 [Compound 51, hydrochloride] | < 5.00 |
| Cc1cc(C#N)cc2[nH]cc(C(=O)OCC34CCN(CC3)CC4)c12 [Compound 60] | < 5.00 |
| O=C(OCC12CCN(CC1)CC2)c1c[nH]c2cc(O)cc(Br)c12 [Compound 53] | < 5.00 |
